Measured Emax by item
Molecular target: human MC3R (Homo sapiens, UniProt P41968)
Construct: expressed in transfected cells; host or cells: HEK-293 cells stably expressing the GScAMP22F split-luciferase cAMP sensor (parent reporter line from Promega); MC3R clone generated in-house, G418 selection
Sequence (P41968 whole entry): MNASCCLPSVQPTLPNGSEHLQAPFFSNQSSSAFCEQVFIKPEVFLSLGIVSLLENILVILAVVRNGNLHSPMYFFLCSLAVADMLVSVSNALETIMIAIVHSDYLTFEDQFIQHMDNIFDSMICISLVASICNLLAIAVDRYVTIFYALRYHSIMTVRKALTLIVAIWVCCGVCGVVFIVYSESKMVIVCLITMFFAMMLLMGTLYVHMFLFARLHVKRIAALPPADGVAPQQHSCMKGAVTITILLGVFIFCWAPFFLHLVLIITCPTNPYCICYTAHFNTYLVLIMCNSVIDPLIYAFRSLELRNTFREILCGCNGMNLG
Experiment: split-luciferase cAMP sensor assay, agonist mode (measurement window 1), hMC3R
Format: cell-based
Details: % maximal activation, agonist mode; read-out: MC3R cAMP % max activation
Positions of bridges follow the written chain, without caps; N, C: chain ends. Non-standard residues stand in square brackets, D forms with d. Residues, ends and D or L forms follow the SMILES beside them. Cit = NC(=O)NCCC[C@H](N)C(=O)O; Nle = CCCC[C@H](N)C(=O)O
# number only, unit % dropped from output

Query: # input compound: C[C@H]1NC(=O)CSC[C@@H](C(N)=O)NC(=O)[C@H](Cc2ccccc2)NC(=O)[C@H](CCCNC(=N)N)NC(=O)[C@@H](Cc2ccccc2)NC(=O)[C@H](CCCNC(=N)N)NC1=O [CTX-1657] ({CH2CO}-[dA]R[dF]RFC-NH2; thioether N-6) ; wanted: its Emax
Result: 30

Query: Query CCCC[C@H](NC(=O)[C@H](CCCNC(=N)N)NC(C)=O)C(=O)N[C@H]1CSSC[C@@H](C(N)=O)NC(=O)[C@H](Cc2ccccc2)NC(=O)[C@H](CCCNC(=N)N)NC(=O)[C@@H](Cc2ccccc2)NC(=O)[C@H](CCCNC(N)=O)NC1=O [CTX-1626, Arg-Nle-cyclo(Cys-Cit-D-Phe-Arg-Phe-Cys)] (Ac-R[Nle]C[Cit][dF]RFC-NH2; disulfide 3-8 (inferred)) next
Result: 51

Query: Query CCCC[C@H](NC(=O)[C@H](CCCNC(=N)N)NC(C)=O)C(=O)N[C@H]1CSSC[C@@H](C(N)=O)NC(=O)[C@H](Cc2c[nH]c3ccccc23)NC(=O)[C@H](CCCNC(=N)N)NC(=O)[C@@H](Cc2ccccc2)NC(=O)[C@H](Cc2c[nH]cn2)NC1=O [CTX-1227, Arg-Nle-cyclo(Cys-His-D-Phe-Arg-Trp-Cys)] (Ac-R[Nle]CH[dF]RWC-NH2; disulfide 3-8 (inferred)) next
Result: 96

====

Target: human MC4R (Homo sapiens)
Construct: host or cells: HEK-293 cells stably expressing the GScAMP22F split-luciferase cAMP sensor and hMC4R, G418 selection
Sequence (P32245 whole entry): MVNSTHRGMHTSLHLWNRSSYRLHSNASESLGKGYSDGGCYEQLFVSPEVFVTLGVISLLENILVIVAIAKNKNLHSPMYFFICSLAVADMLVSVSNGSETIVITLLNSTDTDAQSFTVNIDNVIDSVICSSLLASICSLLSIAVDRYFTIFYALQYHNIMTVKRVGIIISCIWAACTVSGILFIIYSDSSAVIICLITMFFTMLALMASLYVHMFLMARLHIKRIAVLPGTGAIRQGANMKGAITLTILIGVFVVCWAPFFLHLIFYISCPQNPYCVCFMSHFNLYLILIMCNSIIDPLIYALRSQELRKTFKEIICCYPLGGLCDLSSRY
Assay: split-luciferase cAMP sensor assay, agonist mode (measurement window 1), hMC4R
Type: cell-based
Settings: agonist mode, hMC4R stable cell line; read-out: MC4R cAMP % max activation
Positions of bridges follow the written chain, without caps; N, C: chain ends. Non-standard residues stand in square brackets, D forms with d. Residues, ends and D or L forms follow the SMILES beside them. dPhe(4-Br) = N[C@H](Cc1ccc(Br)cc1)C(=O)O; NMeR = CN[C@@H](CCCNC(=N)N)C(=O)O; Nle = CCCC[C@H](N)C(=O)O
measured-quantity: Emax (%)
# number only, unit % dropped from output

Example molecules with recorded Emax:
CC(=O)N[C@@H](CCCNC(=N)N)C(=O)N[C@H]1CSSC[C@@H](C(=O)N[C@@H](CCCNC(=N)N)C(=O)N[C@@H](Cc2ccccc2)C(=O)NCC(=O)O)NC(=O)[C@@H](Cc2c[nH]c3ccccc23)NC(=O)[C@H](CCCNC(=N)N)NC(=O)[C@@H](Cc2ccc(Br)cc2)NC(=O)[C@H](CCCNC(=N)N)NC(=O)[C@@H](C)NC1=O [CTX-1219] (Ac-RC[dA]R[dPhe(4-Br)]R[dW]CRFG-OH; disulfide 2-8 (inferred)) = 76
CCCC[C@H](NC(=O)[C@H](CCCNC(=N)N)NC(C)=O)C(=O)N[C@H]1CSSC[C@@H](C(N)=O)NC(=O)[C@H](Cc2c[nH]c3ccccc23)NC(=O)[C@H](CCCNC(=N)N)NC(=O)[C@@H](Cc2ccc(Br)cc2)NC(=O)[C@H](CCCNC(=N)N)NC1=O [CTX-1612] (Ac-R[Nle]CR[dPhe(4-Br)]RWC-NH2; disulfide 3-8 (inferred)) = 25
CC(=O)N[C@H]1CSSC[C@@H](C(N)=O)NC(=O)[C@H](Cc2ccccc2)NC(=O)[C@H](CCCNC(=N)N)NC(=O)[C@@H](Cc2ccc(Br)cc2)NC(=O)[C@H](CCCNC(=N)N)NC(=O)CNC1=O [CTX-1640] (Ac-CGR[dPhe(4-Br)]RFC-NH2; disulfide 1-7 (inferred)) = 100
CC(=O)N[C@@H](CCCNC(=N)N)C(=O)N[C@H]1CSSC[C@@H](C(N)=O)NC(=O)[C@@H](C)NC(=O)[C@H](CCCNC(=N)N)NC(=O)[C@@H](Cc2ccc(Br)cc2)NC(=O)[C@H](CCCNC(=N)N)NC(=O)[C@@H](C)NC1=O [CTX-1260] (Ac-RC[dA]R[dPhe(4-Br)]R[dA]C-NH2; disulfide 2-8) = 38
CC(=O)N[C@@H](CCCNC(=N)N)C(=O)N[C@H]1CSSC[C@@H](C(N)=O)NC(=O)[C@@H](Cc2c[nH]c3ccccc23)NC(=O)[C@H](CCCNC(=N)N)N(C)C(=O)[C@@H](Cc2ccc(Br)cc2)NC(=O)[C@H](CCCNC(=N)N)NC(=O)[C@@H](C)NC1=O [CTX-1251] (Ac-RC[dA]R[dPhe(4-Br)][NMeR][dW]C-NH2; disulfide 2-8) = 31

Now for the molecule whose Emax we want.
Query: // fetch human MC4R (Homo sapiens) Emax for CC(=O)N[C@@H](CCCNC(=N)N)C(=O)N[C@H]1CSSC[C@@H](C(N)=O)NC(=O)[C@@H](Cc2c[nH]c3ccccc23)NC(=O)[C@H](CCCNC(=N)N)NC(=O)[C@@H](Cc2ccc(O)cc2)NC(=O)[C@H](CCCNC(=N)N)NC(=O)[C@@H](C)NC1=O [CTX-1237] (Ac-RC[dA]R[dY]R[dW]C-NH2; disulfide 2-8 (inferred))
Result: 61
